Molecular target: human ENT1 (Homo sapiens, UniProt Q99808)
Test: ENT1 binding assay (competition with Sahenta-DY647 on JAR cells)
Design: JAR cells expressing ENT1 were bought from ATCC; host or cells: JAR cells
Conditions: binned IC50
pIC50: −log10 of the molar value.

- compound: "COCCN(CCOC)c1nc(N2CC(=O)N(C)C(C)C2)c2nc(N(CCO)CCO)nc(N3CCC(OC)CC3)c2n1 (stereo not shown) [Compound 310]"
  pIC50: "6.00 to 6.30"
- compound: "COCCCN(CCCOC)c1nc(N2CCC(OC)CC2)c2nc(N(CCCO)CCCO)nc(N3CCC(OC)CC3)c2n1 [Compound 330]"
  pIC50: "6.30 to 7.00"
- compound: "COCCN(CCOC)c1nc(N2CCC(OC)C2)c2nc(N(CCOC)CCOC)nc(N3CCC(OC)CC3)c2n1 (stereo not shown) [Compound 80]"
  pIC50: "6.30 to 7.00"
- compound: "COCCN(CCOC)c1nc(N2CCN(C)C(=O)C2)c2nc(N(CCOC)CCOC)nc(N(C)Cc3cccc(OC(F)(F)F)c3)c2n1 [Compound 236]"
  pIC50: "> 7.00"
- compound: "COCCN(CCOC)c1nc(N2CCN(C)C(=O)C2)c2nc(N(CCOC)CCOC)nc(N3CCS(=O)(=O)CC3)c2n1 [Compound 188]"
  pIC50: "6.30 to 7.00"
- compound: "COCCN(CCOC)c1nc(N2CCN(C)C(=O)C2)c2nc(N(CCOC)CCOC)nc(NCc3ccc(F)c(F)c3)c2n1 [Compound 213]"
  pIC50: "> 7.00"
- compound: "COCCN(CCOC)c1nc(N2CCC3(CC2)NC(=O)NC3=O)c2nc(N(CCOC)CCOC)nc(N3CCC(OC)CC3)c2n1 [Compound 117]"
  pIC50: "6.00 to 6.30"

====

Biological target: human ENT1 (Homo sapiens)
Sequence (Q99808 1-456): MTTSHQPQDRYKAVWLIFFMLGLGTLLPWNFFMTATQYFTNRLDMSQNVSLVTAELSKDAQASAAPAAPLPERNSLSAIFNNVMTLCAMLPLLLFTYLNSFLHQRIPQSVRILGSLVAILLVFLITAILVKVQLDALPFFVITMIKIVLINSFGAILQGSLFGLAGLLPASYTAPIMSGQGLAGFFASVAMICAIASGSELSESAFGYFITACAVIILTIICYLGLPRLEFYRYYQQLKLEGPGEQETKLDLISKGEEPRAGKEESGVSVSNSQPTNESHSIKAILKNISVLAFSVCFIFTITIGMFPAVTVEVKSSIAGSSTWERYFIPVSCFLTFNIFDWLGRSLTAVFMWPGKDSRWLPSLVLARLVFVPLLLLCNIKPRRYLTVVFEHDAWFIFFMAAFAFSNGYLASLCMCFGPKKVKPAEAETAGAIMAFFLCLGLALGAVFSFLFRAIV
Test: ENT1 binding assay (competition with Sahenta-DY647 on JAR cells)
Set-up: JAR cells expressing ENT1 were bought from ATCC; host or cells: JAR cells
Conditions: binned IC50
pIC50: −log10 of the molar value.
Listed below: pIC50 values for each entry.
reported-property: pIC50

- compound: "COCCN(CCOC)c1nc(N2CCC(OC)CC2)c2nc(N(CCOC)CCOC)nc(N3CCOCC3)c2n1"
  observed: "6.00 to 6.30"
- compound: "COCCCNc1nc(N(CCOC)CCOC)nc2c(N3CCC(OC)CC3)nc(N(CCOC)CCOC)nc12"
  observed: "6.00 to 6.30"
- compound: "COCCN(CCOC)c1nc(N2CCN(C)C(=O)C2)c2nc(N(CCOC)CCOC)nc(NCc3cccc(OC(F)(F)F)c3)c2n1"
  observed: "> 7.00"
- compound: "COCCN(CCOC)c1nc(N2CCN(c3nnc(C)o3)CC2)c2nc(N(CCOC)CCOC)nc(N3CCC(OC)CC3)c2n1"
  observed: "6.00 to 6.30"
- compound: "CCN(CCN1CCCCC1)c1nc(N2CCN(C)C(=O)C2)c2nc(N(CCOC)CCOC)nc(N3CCC(OC)CC3)c2n1"
  observed: "6.30 to 7.00"
- compound: "COCCN(CCOC)c1nc(N2CCC(OC)CC2)c2nc(N(CCOC)CCOC)nc(NCC(C)C)c2n1"
  observed: "6.30 to 7.00"
- compound: "COCCN(CCOC)c1nc(N2CCC(OC)CC2)c2nc(N(CC(C)O)CC(C)O)nc(N3CCN(C)C(=O)C3)c2n1 (stereo not shown)"
  observed: "> 7.00"
- compound: "COCCN(CCOC)c1nc(N2CCC(OC)CC2)c2nc(N(CCOC)CCOC)nc(NCCc3cnc[nH]3)c2n1"
  observed: "6.00 to 6.30"
- compound: "COCCN(CCOC)c1nc(N2CCCC(F)(F)C2)c2nc(N(CCOC)CCOC)nc(N3CCCC(F)(F)C3)c2n1"
  observed: "> 7.00"
- compound: "COCCN(CCOC)c1nc(N2CCC(OC)CC2)c2nc(N(CCOC)CCOC)nc(NCc3ccncc3)c2n1"
  observed: "6.00 to 6.30"
- compound: "COCCN(CCOC)c1nc(N2CCC(CO)C2)c2nc(N(CCOC)CCOC)nc(N3CCC(OC)CC3)c2n1 (stereo not shown)"
  observed: "> 7.00"
- compound: "COCCN(CCOC)c1nc(N2CCN(c3ncn(C)n3)CC2)c2nc(N(CCOC)CCOC)nc(NCc3cccc(OC)c3)c2n1"
  observed: "> 7.00"
- compound: "COCCN(CCOC)c1nc(N2CCC(OC)CC2)c2nc(N(CCOC)CCOC)nc(N(C)C)c2n1"
  observed: "6.00 to 6.30"
- compound: "COCCN(CCOC)c1nc(N2CCN(c3ncn(C)n3)CC2)c2nc(N(CCOC)CCOC)nc(N(C)Cc3cccc(Cl)c3)c2n1"
  observed: "6.00 to 6.30"
- compound: "COCCN(CCC(=O)NS(=O)(=O)N(C)C)c1nc(N2CCN(C)C(=O)C2)c2nc(N(CCOC)CCOC)nc(N3CCC(OC)CC3)c2n1"
  observed: "6.00 to 6.30"
- compound: "COCCN(Cc1ccc(C(=O)O)c(OC)c1)c1nc(N2CCN(C)C(=O)C2)c2nc(N(CCOC)CCOC)nc(N3CCC(OC)CC3)c2n1"
  observed: "6.30 to 7.00"
- compound: "COCCN(CCOC)c1nc(N2CCC(OC)CC2)c2nc(N(CCOC)CCOC)nc(N3CCC(NC(C)=O)CC3)c2n1"
  observed: "6.00 to 6.30"
- compound: "COCCN(CCOC)c1nc(N2CC(O)(C(F)(F)F)C2)c2nc(N(CCOC)CCOC)nc(NCc3ccccc3)c2n1"
  observed: "> 7.00"
- compound: "COCCN(CCOC)c1nc(N2CCN(C)C(=O)C2)c2nc(N3CCn4cnnc4C3)nc(N3CCC(OC)CC3)c2n1"
  observed: "6.30 to 7.00"
- compound: "COCCN(CCOC)c1nc(N2CCN(C)C(=O)C2)c2nc(N(CCOC)CCOC)nc(NCc3ccc(F)c(C#N)c3)c2n1"
  observed: "> 7.00"
- compound: "COCCN(CCOC)c1nc(N2CCC(OC)CC2)c2nc(N(CCOC)CCOC)nc(NCc3ccc(C)o3)c2n1"
  observed: "6.30 to 7.00"
- compound: "COCCN(CCOC)c1nc(N2CCN(c3ncn(C)n3)CC2)c2nc(N(CCOC)CCOC)nc(NCc3ccc(F)c(F)c3)c2n1"
  observed: "> 7.00"
- compound: "COCCN(CCOC)c1nc(N2CCC(OC)CC2)c2nc(N(CCO)CCO)nc(N3CCN(C4CC4)C(=O)C3)c2n1"
  observed: "6.00 to 6.30"
- compound: "COCCN(CCOC)c1nc(N2CCN(C)C(=O)C2)c2nc(N3CCN(C(=O)OC)CC3)nc(N3CCC(OC)CC3)c2n1"
  observed: "6.00 to 6.30"
- compound: "COCCN(CCOC)c1nc(N2CCS(=O)(=O)CC2)c2nc(N(CCOC)CCOC)nc(N3CCC(OC)CC3)c2n1"
  observed: "> 7.00"
- compound: "COCCN(CCOC)c1nc(N2CCC(OC)CC2)c2nc(N(CCOC)CCOC)nc(NCCCO)c2n1"
  observed: "6.00 to 6.30"
- compound: "COCCN(CCOC)c1nc(N2CCN(c3cccnc3)CC2)c2nc(N(CCOC)CCOC)nc(N3CCC(OC)CC3)c2n1"
  observed: "6.30 to 7.00"
- compound: "COCCN(CCOC)c1nc(N2CCn3nc(C)nc3C2)c2nc(N(CCOC)CCOC)nc(N3CCN(C)C(=O)C3)c2n1"
  observed: "> 7.00"

Where do the numbers come from? From patent US20230146675A1.
